Could you please report measured MIC for the items listed next?
- Tested on: S. Bareilly CVM40145 (ACC-1)
- Format: cell-based, Salmonella
Where a SMILES comes first, the peptide text is derived from it. Bridges are numbered along the chain shown (N, C = ends). [ ]: non-standard residue; d: D form. The star is where a group is joined. Tridecanoyl = CCCCCCCCCCCCC(=O)*; Undecanoyl = CCCCCCCCCCC(=O)*; dOrn = NCCC[C@@H](N)C(=O)O
# output: bare number, implied unit µg/mL

Param item = CCCCCCCCCCCCC(=O)N[C@H](CCCN)C(=O)N[C@H](C(=O)N[C@@H]1C(=O)N[C@H](CCCN)C(=O)N[C@@H](CO)C(=O)N[C@@H](Cc2ccc(O)cc2)C(=O)N[C@H](CCCCN)C(=O)N[C@H](CO)C(=O)N[C@@H]([C@@H](C)CC)C(=O)N2CCC[C@H]2C(=O)N[C@@H]([C@@H](C)CC)C(=O)N2CCC[C@H]2C(=O)N[C@@H]([C@@H](C)CC)C(=O)O[C@@H]1C)C(C)C [Compound A D-form] (Tridecanoyl-[dOrn]VT[dOrn]SY[dK][dS]IPIPI; ester 3-C) ; retrieve measured MIC. 8

Param item = CCCCCCCCCCC(=O)N[C@H](CCCN)C(=O)N[C@H](C(=O)N[C@@H]1C(=O)N[C@H](CCCN)C(=O)N[C@@H](CO)C(=O)N[C@@H](Cc2ccc(O)cc2)C(=O)N[C@H](CCCCN)C(=O)N[C@H](CO)C(=O)N[C@@H]([C@@H](C)CC)C(=O)N2CCC[C@H]2C(=O)N[C@@H]([C@@H](C)CC)C(=O)N2CCC[C@H]2C(=O)N[C@@H]([C@@H](C)CC)C(=O)O[C@@H]1C)C(C)C [Compound C] (Undecanoyl-[dOrn]VT[dOrn]SY[dK][dS]IPIPI; ester 3-C; N-terminus assumed) ; retrieve measured MIC. 16

Param item = CCCCCCCCCCCCC(=O)N[C@H](CCCN)C(=O)N[C@H](C(=O)N[C@@H]1C(=O)N[C@H](CCCN)C(=O)N[C@@H](CO)C(=O)N[C@@H](Cc2ccccc2)C(=O)N[C@H](CCCCN)C(=O)N[C@H](CO)C(=O)N[C@@H]([C@@H](C)CC)C(=O)N2CCC[C@H]2C(=O)N[C@@H]([C@@H](C)CC)C(=O)N2CCC[C@H]2C(=O)N[C@@H]([C@@H](C)CC)C(=O)O[C@@H]1C)C(C)C [Variant D] (Tridecanoyl-[dOrn]VT[dOrn]SF[dK][dS]IPIPI; ester 3-C; N-terminus assumed) ; retrieve measured MIC. 32
